Answer each item with its documented pIC50.
molecular target: protein-protein interaction between Kras and SOS1 (biotin-tagged human Kras loaded with GDP, His-tagged human SOS1) (Homo sapiens (Human), UniProt P01116, G12D); experiment: Protein-protein interaction inhibition between Kras and SOS1 (KrasG12D-SOS PPI) using AlphaScreen; type: biochemical; conditions: AlphaScreen; biotin-tagged human Kras loaded with GDP, His-tagged human SOS1; read-out: KRAS G12D-SOS PPI IC50
Numbered stars: 1 amine (or outer) side, 2 acyl side, 3 side chain; on linkers, the order of the positions; unused ones are H or OH. Bridge positions count the residues as written; N and C are the ends. Square brackets hold non-standard residues; d marks the D form. Peptide text beside a SMILES is read from it. * marks the point of attachment. hPhe(3-Cl-4-CF3) = N[C@@H](CCc1ccc(C(F)(F)F)c(Cl)c1)C(=O)O; hPhe(3-F,4-CF3) = N[C@@H](CCc1ccc(C(F)(F)F)c(F)c1)C(=O)O; mXylylene = c1cc(C[*:1])cc(C[*:2])c1; NMeCha = CN[C@@H](CC1CCCCC1)C(=O)O; cisHyp = O=C(O)[C@@H]1C[C@H](O)CN1; NMeChg = CN[C@H](C(=O)O)C1CCCCC1; NMeD = CN[C@@H](CC(=O)O)C(=O)O; Gly(N-CH2CH2OH) = O=C(O)CNCCO; NMeL = CN[C@@H](CC(C)C)C(=O)O; Piperidide = C1CCN(*)CC1; Ac5c = NC1(C(=O)O)CCCC1; Sar = CNCC(=O)O
One number for each entry, as −log10 of the molar value.

Compound	Value
CC[C@H](C)[C@@H]1NC(=O)[C@H](CC(C)C)N(C)C(=O)C[C@@H](C(=O)N2CCCCC2)N(C)C(=O)[C@H](C2CCCCC2)N(C)C(=O)C2(CCCC2)NC(=O)CN(CCO)C(=O)[C@H](CCc2ccc(C(F)(F)F)c(Cl)c2)NC(=O)CN(C)C(=O)[C@H](CC2CCCCC2)N(C)C(=O)CN(C)C(=O)CN(C)C1=O [Compound 2037] ([NMeL]I[Sar][Sar][NMeCha][Sar][hPhe(3-Cl-4-CF3)][Gly(N-CH2CH2OH)][Ac5c][NMeChg][NMeD]-Piperidide; lactam N-11)	9.24

We now examine a further compound.
Ask: pIC50 for CC[C@H](C)[C@@H]1NC(=O)[C@H](CC(C)C)N(C)C(=O)C[C@@H](C(=O)N2CCCCC2)N(C)C(=O)[C@H](CC(C)C)N(C)C(=O)C2(CCCC2)NC(=O)[C@@H]2C[C@H](OCc3cccc(C)c3)CN2C(=O)[C@H](CCc2ccc(C(F)(F)F)c(F)c2)NC(=O)CN(C)C(=O)[C@H](CC2CCCCC2)N(C)C(=O)CN(C)C(=O)CN(C)C1=O [Compound 2141] ([NMeL]I[Sar][Sar][NMeCha][Sar][hPhe(3-F,4-CF3)][cisHyp](mXylylene)[Ac5c][NMeL][NMeD]-Piperidide; lactam N-11) ?
Result: 7.14

---

Give measured IC50 for each item. Keep answers brief.
biological target: protein-protein interaction between Kras and SOS1 (biotin-tagged human Kras loaded with GDP, His-tagged human SOS1) (Homo sapiens (Human), UniProt P01116, G12D); test: Protein-protein interaction inhibition between Kras and SOS1 (KrasG12D-SOS PPI) using AlphaScreen; assay type: biochemical; details: AlphaScreen; biotin-tagged human Kras loaded with GDP, His-tagged human SOS1; read-out: KRAS G12D-SOS PPI IC50
Numbered stars: 1 amine (or outer) side, 2 acyl side, 3 side chain; on linkers, the order of the positions; unused ones are H or OH. Bridge positions count the residues as written; N and C are the ends. Square brackets hold non-standard residues; d marks the D form. Peptide text beside a SMILES is read from it. * marks the point of attachment. hPhe(3-Cl-4-CF3) = N[C@@H](CCc1ccc(C(F)(F)F)c(Cl)c1)C(=O)O; hPhe(3-F,4-CF3) = N[C@@H](CCc1ccc(C(F)(F)F)c(F)c1)C(=O)O; NMePhe(4-CF3) = CN[C@@H](Cc1ccc(C(F)(F)F)cc1)C(=O)O; NMedβ3hAla = C[C@H](CC(=O)[*:2])N(C)[*:1]; NMeGly(cPent) = CN[C@H](C(=O)O)C1CCCC1; NMeGly(cBu) = CN[C@H](C(=O)O)C1CCC1; NMeCha = CN[C@@H](CC1CCCCC1)C(=O)O; Ala(cPr) = N[C@@H](CC1CC1)C(=O)O; NMeD = CN[C@@H](CC(=O)O)C(=O)O; NMeL = CN[C@@H](CC(C)C)C(=O)O; NMeV = CN[C@H](C(=O)O)C(C)C; d(β3hA) = C[C@@H](N)CC(=O)O; NPhGly = O=C(O)CNc1ccccc1; Morpholide = C1CN(*)CCO1; NMeA = CN[C@@H](C)C(=O)O; NMeAib = CNC(C)(C)C(=O)O; dNMeA = CN[C@H](C)C(=O)O; Ac5c = NC1(C(=O)O)CCCC1; Aze = O=C(O)[C@@H]1CCN1; Sar = CNCC(=O)O
Give bare numbers, in µM.

Below are worked cases with known answers.
Compound	Readout label	Value
CC[C@H](C)[C@@H]1NC(=O)[C@H](C)N(C)C(=O)C[C@@H](C)NC(=O)[C@H](C2CCCC2)N(C)C(=O)C2(CCCC2)NC(=O)[C@@H]2CCCN2C(=O)[C@H](CCc2ccc(C(F)(F)F)c(Cl)c2)NC(=O)[C@@H](C)N(C)C(=O)[C@H](Cc2ccc(C(F)(F)F)cc2)N(C)C(=O)[C@@H]2CCN2C(=O)[C@H](C)N(C)C1=O [Compound 1497] (cyclo([Ac5c][NMeGly(cPent)][d(β3hA)][NMeA]I[NMeA][Aze][NMePhe(4-CF3)][dNMeA][hPhe(3-Cl-4-CF3)]P))	IC50	0.025
CC[C@H](C)[C@@H]1NC(=O)[C@H](C)N(C)C(=O)C[C@@H](C)N(C)C(=O)[C@H](C2CCC2)N(C)C(=O)C(C)(C)N(C)C(=O)CN(c2ccccc2)C(=O)[C@H](CCc2ccc(C(F)(F)F)c(Cl)c2)NC(=O)CN(C)C(=O)[C@H](C2CCC2)N(C)C(=O)[C@@H]2CCN2C(=O)[C@H](C)N(C)C1=O [Compound 2148] (cyclo([Aze][NMeGly(cBu)][Sar][hPhe(3-Cl-4-CF3)][NPhGly][NMeAib][NMeGly(cBu)][NMedβ3hAla][NMeA]I[NMeA]))	IC50	0.063
CC(C)C[C@H]1C(=O)N[C@@H](CC2CC2)C(=O)N(C)[C@@H](C)C(=O)N2CC[C@H]2C(=O)N(C)[C@@H](CC2CCCCC2)C(=O)N(C)CC(=O)N[C@@H](CCc2ccc(C(F)(F)F)c(Cl)c2)C(=O)N2CCC[C@H]2C(=O)NC2(CCCC2)C(=O)N(C)[C@@H](C(C)C)C(=O)N[C@H](C)CC(=O)N1C [Compound 474] (cyclo([Ac5c][NMeV][d(β3hA)][NMeL][Ala(cPr)][NMeA][Aze][NMeCha][Sar][hPhe(3-Cl-4-CF3)]P))	IC50	0.28
CC[C@H](C)[C@@H]1NC(=O)[C@H](CC(C)C)N(C)C(=O)C[C@@H](C(=O)N2CCOCC2)N(C)C(=O)[C@H](C2CCCC2)N(C)C(=O)C2(CCCC2)NC(=O)[C@@H]2CCCN2C(=O)[C@H](CCc2ccc(C(F)(F)F)c(F)c2)NC(=O)CN(C)C(=O)[C@H](C2CCCC2)N(C)C(=O)[C@@H]2CCN2C(=O)[C@H](C)N(C)C1=O [Compound 871] ([NMeL]I[NMeA][Aze][NMeGly(cPent)][Sar][hPhe(3-F,4-CF3)]P[Ac5c][NMeGly(cPent)][NMeD]-Morpholide; lactam N-11)	IC50	0.00078

Now for a further compound.
Ask: Give its IC50 value. Item: CC[C@H](C)[C@@H]1NC(=O)[C@H](CC(C)C)N(C)C(=O)C[C@@H](C)N(C)C(=O)[C@H](C(C)C)N(C)C(=O)C2(CCCC2)NC(=O)[C@@H]2CCCN2C(=O)[C@H](CCc2ccc(C(F)(F)F)c(Cl)c2)NC(=O)CN(C)C(=O)[C@H](CC2CCCCC2)N(C)C(=O)[C@@H]2CCN2C(=O)CN(C)C1=O [Compound 1648] (cyclo([Ac5c][NMeV][NMedβ3hAla][NMeL]I[Sar][Aze][NMeCha][Sar][hPhe(3-Cl-4-CF3)]P))
Result: 0.01

---

molecular target: protein-protein interaction between Kras and SOS1 (biotin-tagged human Kras loaded with GDP, His-tagged human SOS1) (Homo sapiens (Human), UniProt P01116, G12D); test: Protein-protein interaction inhibition between Kras and SOS1 (KrasG12D-SOS PPI) using AlphaScreen; type: biochemical; conditions: AlphaScreen; biotin-tagged human Kras loaded with GDP, His-tagged human SOS1; read-out: KRAS G12D-SOS PPI IC50;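 also: kras produced in E. coli, Ni-coupled donor beads and streptavidin acceptor beads, excitation 680 nm with emission detected at 520–620 nm via singlet oxygen transfer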
Numbered stars: 1 amine (or outer) side, 2 acyl side, 3 side chain; on linkers, the order of the positions; unused ones are H or OH. Square brackets hold non-standard residues; d marks the D form. Peptide text beside a SMILES is read from it. hPhe(3-F,4-CF3) = N[C@@H](CCc1ccc(C(F)(F)F)c(F)c1)C(=O)O; NMedβ3hAla = C[C@H](CC(=O)[*:2])N(C)[*:1]; NMeGly(cPent) = CN[C@H](C(=O)O)C1CCCC1; NMeI = CC[C@H](C)[C@H](NC)C(=O)O; NMeL = CN[C@@H](CC(C)C)C(=O)O; NMeA = CN[C@@H](C)C(=O)O; Ac5c = NC1(C(=O)O)CCCC1; Aze = O=C(O)[C@@H]1CCN1; Sar = CNCC(=O)O
Readout label: pIC50
Give bare numbers, as −log10 of the molar value.

Ask: # input compound: CC[C@H](C)[C@@H]1NC(=O)[C@H](CC(C)C)N(C)C(=O)C[C@@H](C)N(C)C(=O)[C@H]([C@@H](C)CC)N(C)C(=O)C2(CCCC2)NC(=O)[C@@H]2CCCN2C(=O)[C@H](CCc2ccc(C(F)(F)F)c(F)c2)NC(=O)CN(C)C(=O)[C@H](C2CCCC2)N(C)C(=O)[C@@H]2CCN2C(=O)[C@H](C)N(C)C1=O [Compound 909] (cyclo([Ac5c][NMeI][NMedβ3hAla][NMeL]I[NMeA][Aze][NMeGly(cPent)][Sar][hPhe(3-F,4-CF3)]P)) ; wanted: its pIC50
Result: 7.70
